- ASSAY TARGET: Human immunodeficiency virus type 1 reverse transcriptase (Human immunodeficiency virus 1, UniProt Q72547)
- MEASUREMENT DESCRIPTION: Inhibition of recombinant wild type HIV-1 reverse transcriptase incubated for 40 mins in presence of poly(rA) template/oligo(dT)16 primer by Pico-Green dye based analysis
Exercise: for every item that follows, state its recorded pIC50.
Answers are plain numbers, as −log10 of the molar value.

// below: answered compounds
{"CHEMICAL SMILES": "[2H]C([2H])([2H])c1cc(C#N)cc(C)c1Oc1nc(NC2CCN(Cc3ccc(C(N)=O)cc3)CC2)nc2sccc12", "pIC50": 6.92}
{"CHEMICAL SMILES": "[2H]C([2H])([2H])c1cc(-c2ccc(C#N)cc2)cc(C([2H])([2H])[2H])c1Nc1ccnc(Nc2ccc(C#N)cc2)n1", "pIC50": 6.42}
{"CHEMICAL SMILES": "Cc1cc(-c2ccc(C#N)cc2)cc(C)c1Nc1ccnc(Nc2ccc(C#N)cc2)n1", "pIC50": 6.47}
{"CHEMICAL SMILES": "[2H]C([2H])([2H])c1cc(C#N)cc(C([2H])([2H])[2H])c1Oc1nc(NC2CCN(Cc3ccc(S(N)(=O)=O)cc3)CC2)nc2ccccc12", "pIC50": 6.64}
{"CHEMICAL SMILES": "[2H]C([2H])([2H])c1cc(C#N)cc(C([2H])([2H])[2H])c1Oc1nc(NC2CCN(Cc3ccc(S(N)(=O)=O)cc3)CC2)nc2scnc12", "pIC50": 6.72}
{"CHEMICAL SMILES": "[2H]C([2H])([2H])c1cc(C#N)cc(C)c1Oc1nc(NC2CCN(Cc3ccc(S(N)(=O)=O)cc3)CC2)nc2ccccc12", "pIC50": 6.68}
{"CHEMICAL SMILES": "[2H]C([2H])([2H])c1cc(C#N)cc(C([2H])([2H])[2H])c1Oc1nc(NC2CCN(Cc3ccc(C(N)=O)cc3)CC2)nc2scnc12", "pIC50": 6.80}

Inquiry: For the compound `[2H]C([2H])([2H])c1cc(C#N)cc(C)c1Oc1nc(NC2CCN(Cc3ccc(C(N)=O)cc3)CC2)nc2ccccc12` , what pIC50 is on record?
Reply text: 6.68

----------
- Test system: Human immunodeficiency virus 1
- MEASUREMENT DESCRIPTION: Antiviral activity against drug-resistant HIV-1 harboring RT L100I mutant infected in human MT4 cells assessed as protection against virus-induced cytopathicity measured after 5 days post-infection by MTT assay
- Assay type: functional, organism-based
- CONDITIONS: Human immunodeficiency virus 1, MT4, 120 h
# if measured EC50 < 10 nM: True  # else: False

Inquiry: Strictly below 10 nM in EC50? `[2H]C([2H])([2H])c1cc(C#N)cc(C([2H])([2H])[2H])c1Oc1nc(NC2CCN(Cc3ccc(C(N)=O)cc3)CC2)nc2ccsc12`
Reply text: False

Inquiry: Further, for `[2H]C([2H])([2H])c1cc(C#N)cc(C)c1Oc1nc(NC2CCN(Cc3ccc(C(N)=O)cc3)CC2)nc2ccsc12` ?
Reply text: False

Inquiry: Next compound: `[2H]C([2H])([2H])c1cc(C#N)cc(C([2H])([2H])[2H])c1Oc1nc(NC2CCN(Cc3ccc(C(N)=O)cc3)CC2)nc2scnc12`
Reply text: False

Inquiry: Another compound: `[2H]C([2H])([2H])c1cc(C#N)cc(C)c1Oc1nc(NC2CCN(Cc3ccc(S(N)(=O)=O)cc3)CC2)nc2scnc12`
Reply text: False

Inquiry: Repeat with `[2H]C([2H])([2H])c1cc(C#N)cc(C)c1Oc1nc(NC2CCN(Cc3ccc(C(N)=O)cc3)CC2)nc2ccccc12`
Reply text: False

Inquiry: // next record `[2H]C([2H])([2H])c1cc(C#N)cc(C([2H])([2H])[2H])c1Oc1nc(NC2CCN(Cc3ccc(S(N)(=O)=O)cc3)CC2)nc2ccsc12`
Reply text: True

Inquiry: Next record, please: Cc1cc(/C=C/C#N)cc(C)c1Nc1ccnc(Nc2ccc(C#N)cc2)n1 [RILPIVIRINE]
Reply text: True

Inquiry: Same question, `[2H]C([2H])([2H])c1cc(C#N)cc(C([2H])([2H])[2H])c1Oc1nc(NC2CCN(Cc3ccc(C(N)=O)cc3)CC2)nc2ccccc12` this time
Reply text: False

Inquiry: Then this compound: `[2H]C([2H])([2H])c1cc(/C=C/C#N)cc(C)c1Nc1ccnc(Nc2ccc(C#N)cc2)n1`
Reply text: True

Inquiry: Record: `[2H]C([2H])([2H])c1cc(C#N)cc(C)c1Oc1nc(NC2CCN(Cc3ccc(S(N)(=O)=O)cc3)CC2)nc2sccc12`
Reply text: False

Inquiry: Lookup `[2H]C([2H])([2H])c1cc(C#N)cc(C([2H])([2H])[2H])c1Oc1nc(NC2CCN(Cc3ccc(S(N)(=O)=O)cc3)CC2)nc2scnc12`
Reply text: False

Inquiry: Same question for `[2H]C([2H])([2H])c1cc(-c2ccc(C#N)cc2)cc(C([2H])([2H])[2H])c1Nc1ccnc(Nc2ccc(C#N)cc2)n1` please.
Reply text: True

Inquiry: Record: `[2H]C([2H])([2H])c1cc(C#N)cc(C)c1Oc1nc(NC2CCN(Cc3ccc(S(N)(=O)=O)cc3)CC2)nc2ccsc12`
Reply text: True

Inquiry: Same question for `[2H]C([2H])([2H])c1cc(C#N)cc(C)c1Oc1nc(NC2CCN(Cc3ccc(S(N)(=O)=O)cc3)CC2)nc2ccccc12` please.
Reply text: True

----------
- MEASUREMENT DESCRIPTION: Cmax in Sprague-Dawley rat at 1 mg/kg, iv measured for 0.083 to 24 hrs by LC-MS/MS analysis
- Type: ADME, organism-based
- CONDITIONS: in vivo, time 0.083-24 hrs
PARAMETER MEASURED: Cmax
Please provide the amount together with its unit, number first.

Inquiry: Report Cmax for `[2H]C([2H])([2H])c1cc(C#N)cc(C([2H])([2H])[2H])c1Oc1nc(NC2CCN(Cc3ccc(S(N)(=O)=O)cc3)CC2)nc2ccsc12` please.
Reply text: 1240 ng/mL

----------
- MEASUREMENT DESCRIPTION: Clearance in Sprague-Dawley rat at 1 mg/kg, iv measured for 0.083 to 24 hrs by LC-MS/MS analysis
- Assay type: ADME, organism-based
- CONDITIONS: in vivo, time 0.083-24 hrs
PARAMETER MEASURED: clearance (mL/min/kg)
Numbers only, in mL/min/kg.

Inquiry: # get_value(readout='clearance', item= `[2H]C([2H])([2H])c1cc(C#N)cc(C([2H])([2H])[2H])c1Oc1nc(NC2CCN(Cc3ccc(S(N)(=O)=O)cc3)CC2)nc2ccsc12` )
Reply text: 22.9

----------
- MEASUREMENT DESCRIPTION: AUC (0 to infinity) in Sprague-Dawley rat at 10 mg/kg, po measured for 0.083 to 24 hrs by LC-MS/MS analysis
- Type: ADME, organism-based
- CONDITIONS: in vivo, time 0.083-24 hrs
PARAMETER MEASURED: AUC(0-inf) (ng·h/mL)
Answers are plain numbers, in ng·h/mL.

Inquiry: // lookup AUC(0-inf) for `[2H]C([2H])([2H])c1cc(C#N)cc(C([2H])([2H])[2H])c1Oc1nc(NC2CCN(Cc3ccc(S(N)(=O)=O)cc3)CC2)nc2ccsc12`
Reply text: 1800

----------
- ASSAY TARGET: Cytochrome P450 2D6 (Homo sapiens)
- Sequence (P10635 whole entry): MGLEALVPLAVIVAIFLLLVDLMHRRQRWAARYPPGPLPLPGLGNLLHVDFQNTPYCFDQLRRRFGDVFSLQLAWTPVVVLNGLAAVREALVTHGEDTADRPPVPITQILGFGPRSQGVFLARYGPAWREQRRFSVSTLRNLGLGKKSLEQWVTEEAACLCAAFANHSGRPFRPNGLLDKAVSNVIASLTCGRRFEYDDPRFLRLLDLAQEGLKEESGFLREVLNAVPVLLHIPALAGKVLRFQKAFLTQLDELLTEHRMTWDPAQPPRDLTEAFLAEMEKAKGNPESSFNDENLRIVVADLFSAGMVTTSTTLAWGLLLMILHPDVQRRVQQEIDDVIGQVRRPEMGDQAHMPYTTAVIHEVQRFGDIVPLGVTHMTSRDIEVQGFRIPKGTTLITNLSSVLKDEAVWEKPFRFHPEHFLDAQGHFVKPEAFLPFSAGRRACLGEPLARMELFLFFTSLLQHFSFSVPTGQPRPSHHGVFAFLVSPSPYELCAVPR
PARAMETER MEASURED: IC50

Inquiry: What value of IC50 has been reported for the following compound? `[2H]C([2H])([2H])c1cc(C#N)cc(C([2H])([2H])[2H])c1Oc1nc(NC2CCN(Cc3ccc(S(N)(=O)=O)cc3)CC2)nc2ccsc12`
Reply text: > 10 µM

----------
- MEASUREMENT DESCRIPTION: Cytotoxicity against human MT4 cells assessed as reduction in cell viability by MTT assay
- Type: toxicity, cell-based
PARAMETER MEASURED: log10 CC50 (log10 of the value in µM)
Lab note - CC50 converted to log10 from values in µM.

{"CHEMICAL SMILES": "[2H]C([2H])([2H])c1cc(C#N)cc(C([2H])([2H])[2H])c1Oc1nc(NC2CCN(Cc3ccc(S(N)(=O)=O)cc3)CC2)nc2ccccc12", "RECORDED RESULT": 1.39}

I would be grateful if you could provide log10 CC50 for each of the following entries.
1. [2H]C([2H])([2H])c1cc(C#N)cc(C([2H])([2H])[2H])c1Oc1nc(NC2CCN(Cc3ccc(C(N)=O)cc3)CC2)nc2scnc12
2. [2H]C([2H])([2H])c1cc(C#N)cc(C)c1Oc1nc(NC2CCN(Cc3ccc(C(N)=O)cc3)CC2)nc2ccccc12
3. [2H]C([2H])([2H])c1cc(/C=C/C#N)cc(C)c1Nc1ccnc(Nc2ccc(C#N)cc2)n1
4. [2H]C([2H])([2H])c1cc(-c2ccc(C#N)cc2)cc(C)c1Nc1ccnc(Nc2ccc(C#N)cc2)n1
5. [2H]C([2H])([2H])c1cc(/C=C/C#N)cc(C([2H])([2H])[2H])c1Nc1ccnc(Nc2ccc(C#N)cc2)n1
6. Cc1cc(/C=C/C#N)cc(C)c1Nc1ccnc(Nc2ccc(C#N)cc2)n1
7. [2H]C([2H])([2H])c1cc(C#N)cc(C([2H])([2H])[2H])c1Oc1nc(NC2CCN(Cc3ccc(C(N)=O)cc3)CC2)nc2ccccc12

Reply text:
1.33
2.18
0.82
0.77
0.82
0.83
1.96

For the 2 compounds below, give their log10 CC50 values.
1. [2H]C([2H])([2H])c1cc(C#N)cc(C)c1Oc1nc(NC2CCN(Cc3ccc(S(N)(=O)=O)cc3)CC2)nc2scnc12
2. [2H]C([2H])([2H])c1cc(-c2ccc(C#N)cc2)cc(C([2H])([2H])[2H])c1Nc1ccnc(Nc2ccc(C#N)cc2)n1

Reply text:
1. 1.17
2. 0.78
